- Test system: VMRC-RCZ;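 note: growth inhibition measured with a cell viability assay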
- procedure.details: cells
- Type: functional, cell-based, Homo sapiens
- settings: Homo sapiens, VMRC-RCZ
- Description: SANGER: Inhibition of human VMRC-RCZ cell growth in a cell viability assay.
pIC50: −log10 of the molar value.
quantity.kind: pIC50

Challenge: Specify pIC50 for COc1cccc2c1C(=O)c1c(O)c3c(c(O)c1C2=O)C[C@@](O)(C(=O)CO)C[C@@H]3O[C@H]1C[C@H](N)[C@H](O)[C@H](C)O1 and stop.
Response given: 7.03

Challenge: Specify pIC50 for CC(C)CCN1c2nc(Nc3cc(F)c(O)c(F)c3)ncc2N(C)C(=O)C1C (configuration not stated) and stop.
Response given: < 5.30

Challenge: Specify pIC50 for Cc1cn(-c2cc(NC(=O)c3ccc(C)c(Nc4nccc(-c5cccnc5)n4)c3)cc(C(F)(F)F)c2)cn1 and stop.
Response given: < 5.70

Challenge: Specify pIC50 for O=C(O)c1ccc(-c2c[nH]c3ncc(-c4ccccc4)cc23)cc1C1CCCC1 and stop.
Response given: < 4.80

Challenge: Specify pIC50 for Nc1ccn([C@@H]2O[C@H](CO)[C@@H](O)C2(F)F)c(=O)n1 and stop.
Response given: 8.81

Challenge: Specify pIC50 for N#Cc1c(O)c2c(-c3ccc(-c4ccccc4O)cc3)csc2[nH]c1=O and stop.
Response given: < 5.99

Challenge: Specify pIC50 for CO[C@H]1C[C@@H]2CC[C@@H](C)[C@@](O)(O2)C(=O)C(=O)N2CCCC[C@H]2C(=O)O[C@H]([C@H](C)C[C@@H]2CC[C@@H](OC(=O)C(C)(CO)CO)[C@H](OC)C2)CC(=O)[C@H](C)/C=C(\C)[C@@H](O)[C@@H](OC)C(=O)[C@H](C)C[C@H](C)/C=C/C=C/C=C/1C and stop.
Response given: < 6.70
